Test system: Nucleic Acid
assayProtocol: Binding affinity to calf thymus DNA assessed as binding constant by spectrofluorimetry based McGhee von Hippel method
Type: nucleic-acid assay
testParameters: Bos taurus
Documented K across a set of compounds

{"columns": ["compound", "experimentalTarget", "units", "K"],
 "data": [
  ["CCC(C)N1C(=O)/C(=C/C(=O)OC)S/C1=N\\c1c2ccccc2nc2ccccc12 (stereo not given)", "Nucleic Acid", "×10⁶ /M", 2.21],
  ["COC(=O)/C=C1\\S/C(=N\\c2c3ccccc3nc3ccccc23)N(C(C)(C)C)C1=O", "Nucleic Acid", "×10⁶ /M", 1.37],
  ["COC(=O)/C=C1\\S/C(=N\\c2c3ccccc3nc3ccccc23)N(c2ccc(Br)cc2)C1=O", "Nucleic Acid", "×10⁶ /M", 5.89]
]}
